- System: rodent lifetime carcinogenesis bioassay, tumor incidence TD50
- assay-method-text: carcinogenic potency in animals, long-term in vivo studies, CPDB compilation (AID 1745844)
- measurement-parameters: rat; strain Fischer 344; females; in drinking water; site: palate; lesion: squamous-cell carcinoma + squamous-cell papilloma; dosed 91 weeks; study length 93 weeks

- structure: "COc1cc(-c2ccc(N)c(OC)c2)ccc1N"
  TD50: "45.3 mg/kg/day"

---

- Tested on: rodent lifetime carcinogenesis bioassay, tumor incidence TD50
- assay-method-text: carcinogenic potency in animals, long-term in vivo studies, CPDB compilation (AID 1745844)
- measurement-parameters: mouse; strain Swiss; males; i.p.; site: lung; lesion: several types; types named in the paper; dosed 26 weeks; study length 72 weeks
property-measured: TD50

- structure: "CN(N=O)C(=O)N[C@@H](C=O)[C@@H](O)[C@H](O)[C@H](O)CO"
  property-measured: "TD50"
  test-result: "0.462 mg/kg/day"
